Origin of measurements: paper PMC5261807

Measured binding score of individual entries
Target: T1, Bdf1 bromodomain 1 (GST-tagged, WT) (Saccharomyces cerevisiae (strain ATCC …, UniProt P35817))
T1 chain: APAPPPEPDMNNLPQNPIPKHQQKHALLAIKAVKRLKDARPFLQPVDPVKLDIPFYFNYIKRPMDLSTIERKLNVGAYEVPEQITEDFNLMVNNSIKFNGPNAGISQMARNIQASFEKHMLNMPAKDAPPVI
Test: histone peptide array probed with recombinant GST-bromodomain, signal normalised to myc peptide control
Non-standard residues stand in square brackets, D forms with d. No end group written: not given here. Lys(Me3) = C[N+](C)(C)CCCC[C@H](N)C(=O)O; Arg(Me2s) = CN=C(NC)NCCC[C@H](N)C(=O)O; pT = C[C@@H](OP(=O)(O)O)[C@H](N)C(=O)O; Lys(Me2) = CN(C)CCCC[C@H](N)C(=O)O; Lys(Me) = CNCCCC[C@H](N)C(=O)O
Reply with the value as a number alone.

Record excerpt, results attached:
ARTKQTA[Arg(Me2s)][Lys(Me2)]S[pT]GGKAPRKQ; 0.0052
ARTKQTARKSTGGKAPRKQ (A R T K Q T A Rme2s Kme3 S pT G G K A P R K Q); 0
ARTKQTARKSTGGKAPRKQ (A Rme2a T Kme3 Q T A Rme2a Kme1 S T G G K A P R K Q); 0

Exercise: Which binding score value belongs to ARTKQTARKSTGGKAPRKQ (A R T K Q T A Rme2a Kme2 S pT G G K A P R K Q) ?
Key: 0.00323

Exercise: Which binding score is reported for this binder? `A[Arg(Me2s)]T[Lys(Me3)]QTAR[Lys(Me)]STGGKAPRKQ`
Key: 0

Exercise: Record request: binding score value, item ARTKQTARKSTGGKAPRKQ (A Rme2a T Kme3 Q T A Rme2a Kac S T G G K A P R K Q)
Key: 0.0145

Exercise: Need binding score, item SGRGKQGGKARAKAKSRSS (histone peptides carry modifications given inline in the sequence and in columns 4-7 (Kac, Kme1/2/3, Rme2a/s, Cit, pS/pT); N-terminus free or acetylated) [H2a 1-19]
Key: 0
